Target: ECHANGEUR D'ANIONS (Homo sapiens)
Construct: systèmes de transport du sodium et du potassium des érythrocytes humains; endogenous in cells
Sequence (P02730 whole entry): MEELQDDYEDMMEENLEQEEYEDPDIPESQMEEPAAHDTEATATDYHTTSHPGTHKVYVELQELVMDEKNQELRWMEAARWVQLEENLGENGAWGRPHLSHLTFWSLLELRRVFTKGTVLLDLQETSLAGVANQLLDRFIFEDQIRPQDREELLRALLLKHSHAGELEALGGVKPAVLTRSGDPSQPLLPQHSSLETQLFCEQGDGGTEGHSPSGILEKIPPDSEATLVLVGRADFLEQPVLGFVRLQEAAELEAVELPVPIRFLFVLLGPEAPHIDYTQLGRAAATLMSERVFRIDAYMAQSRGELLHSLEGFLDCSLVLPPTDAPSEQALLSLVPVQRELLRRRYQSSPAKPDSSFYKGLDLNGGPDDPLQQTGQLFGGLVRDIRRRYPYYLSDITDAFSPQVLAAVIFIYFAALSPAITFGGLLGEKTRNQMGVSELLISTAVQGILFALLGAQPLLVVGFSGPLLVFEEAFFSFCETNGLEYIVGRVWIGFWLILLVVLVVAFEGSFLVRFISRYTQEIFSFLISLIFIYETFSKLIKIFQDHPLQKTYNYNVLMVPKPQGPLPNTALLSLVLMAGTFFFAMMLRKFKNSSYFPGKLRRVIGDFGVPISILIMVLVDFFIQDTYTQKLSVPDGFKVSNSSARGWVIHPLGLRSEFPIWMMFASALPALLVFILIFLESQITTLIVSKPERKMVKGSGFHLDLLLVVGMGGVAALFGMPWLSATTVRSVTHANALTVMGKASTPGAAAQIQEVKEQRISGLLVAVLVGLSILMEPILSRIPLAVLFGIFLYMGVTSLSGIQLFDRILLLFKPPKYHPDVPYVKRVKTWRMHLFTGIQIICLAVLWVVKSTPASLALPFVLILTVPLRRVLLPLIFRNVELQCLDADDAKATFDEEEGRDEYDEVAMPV
Test: Anion exchanger of human erythrocytes
Details: read-out: EFFET SUR L'ECHANGEUR D'ANIONS IC 50
pIC50: −log10 of the molar value.
parameter.measured: pIC50

// below: answered compounds
- compound: "CCCCNc1cc(C(=O)O)cc(S(N)(=O)=O)c1Oc1ccccc1 [BUMETANIDE, reference compound]"
  target.under.test: "ECHANGEUR D'ANIONS (Homo sapiens)"
  pIC50: 3.52
- compound: "Oc1ccc(O)c(CCOc2ccccc2)c1 [ex 42]"
  target.under.test: "ECHANGEUR D'ANIONS (Homo sapiens)"
  pIC50: 4.92
- compound: "Oc1ccccc1CCOc1ccc(F)cc1 [ex 30]"
  target.under.test: "ECHANGEUR D'ANIONS (Homo sapiens)"
  pIC50: 5.40
- compound: "COc1ccc(O)c(CCOc2ccc(Cl)cc2)c1 [ex 26]"
  target.under.test: "ECHANGEUR D'ANIONS (Homo sapiens)"
  pIC50: 4.40

(I) Cc1ccc(O)c(CCOc2ccccc2)c1 [ex 36]
(II) COc1ccc(OC(C)=O)c(CCOc2ccc(F)cc2)c1 [ex 25]
In: Among I and II , which shows a numerically higher pIC50 result? Select an item and report its label.
Out: I

* * *

System: plasmas riches en plaquettes provenant de sang de rat
Assay: Platelet anti-aggregation in vitro, ADP-induced (Born aggregometer)
Type: cell-based
Settings: Rattus norvegicus, Platelet, read-out: V à 50
parameter.measured: pIC50
Expect pIC50 as a plain number equal to -log10 of the molar concentration.

In: Item O=P(O)(O)Oc1ccccc1CCOc1ccc(F)cc1 [ex 134] : provide pIC50
Out: 2.82

* * *

Biological target: COTRANSPORT Na-K (Homo sapiens, UniProt P55011)
Construct: systèmes de transport du sodium et du potassium des érythrocytes humains; endogenous in cells; host or cells: human erythrocytes
Sequence (P55011 whole entry): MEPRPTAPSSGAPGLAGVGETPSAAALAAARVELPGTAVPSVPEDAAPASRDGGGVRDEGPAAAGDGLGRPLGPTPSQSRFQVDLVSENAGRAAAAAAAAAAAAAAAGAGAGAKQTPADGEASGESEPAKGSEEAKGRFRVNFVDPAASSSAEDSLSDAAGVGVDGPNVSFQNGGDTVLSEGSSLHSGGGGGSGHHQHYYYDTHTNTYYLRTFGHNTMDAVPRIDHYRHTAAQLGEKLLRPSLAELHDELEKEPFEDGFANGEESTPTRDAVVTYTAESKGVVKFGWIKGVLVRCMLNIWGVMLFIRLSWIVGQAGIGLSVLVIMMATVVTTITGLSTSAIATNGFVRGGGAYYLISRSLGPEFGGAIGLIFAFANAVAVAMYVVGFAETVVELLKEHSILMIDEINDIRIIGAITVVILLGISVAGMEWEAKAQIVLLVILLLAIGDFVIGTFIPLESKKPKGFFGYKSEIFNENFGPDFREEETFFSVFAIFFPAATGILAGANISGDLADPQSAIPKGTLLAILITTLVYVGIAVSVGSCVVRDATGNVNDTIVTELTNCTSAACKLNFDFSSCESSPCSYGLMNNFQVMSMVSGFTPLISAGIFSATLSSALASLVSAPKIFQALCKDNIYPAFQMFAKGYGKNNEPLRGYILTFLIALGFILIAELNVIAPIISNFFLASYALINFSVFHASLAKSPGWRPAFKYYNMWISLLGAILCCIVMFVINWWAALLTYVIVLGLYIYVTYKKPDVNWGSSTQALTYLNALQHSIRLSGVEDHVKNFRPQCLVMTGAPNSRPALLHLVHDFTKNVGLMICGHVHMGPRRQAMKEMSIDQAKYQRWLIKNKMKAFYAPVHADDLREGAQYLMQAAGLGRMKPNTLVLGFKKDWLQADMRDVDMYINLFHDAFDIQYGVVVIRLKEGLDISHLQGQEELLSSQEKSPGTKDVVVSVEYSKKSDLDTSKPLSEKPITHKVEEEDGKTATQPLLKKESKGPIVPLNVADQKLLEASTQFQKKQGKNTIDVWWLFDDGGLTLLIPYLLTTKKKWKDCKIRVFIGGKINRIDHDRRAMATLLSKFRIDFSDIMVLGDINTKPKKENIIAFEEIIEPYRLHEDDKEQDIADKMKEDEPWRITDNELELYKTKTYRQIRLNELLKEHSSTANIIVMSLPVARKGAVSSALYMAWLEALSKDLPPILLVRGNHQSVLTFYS
Experiment: Na-K cotransport of human erythrocytes
Assay type: cell-based, ERYTHROCYTES HUMAINS
Details: human erythrocytes; read-out: EFFET SUR LE COTRANSPORT Na-K IC 50
parameter.measured: IC50 (µM)

- smiles.code: "Oc1c(CCOc2ccc(F)cc2)ccc2ccccc12"
  units.of.measure: "µM"
  IC50: 95
- smiles.code: "Oc1ccccc1CCOc1ccc2ccccc2c1"
  units.of.measure: "µM"
  IC50: 95

(I) COc1ccc(O)c(CCOc2ccc(Cl)cc2)c1
(II) Oc1ccc(O)c(CCOc2ccccc2)c1
(III) Oc1ccccc1CCOc1ccc(F)cc1
In: Order the records so the highest IC50 appears first and the lowest last. # list labels per requested ordering
Out: III, I, II

* * *

Tested on: SOURIS
Assay: Diuretic activity in the mouse (hourly urine volume, sodium and potassium assay)
Assay type: in vivo
Conditions: Mus musculus, po; S = SOURIS; diuretic activity; read-out: Dose minimale active
From the text: d'urine sont déterminés toutes les heures. Le dosage de sodium et du potassium est effectué par spectrophotométrie.
parameter.measured: minimal effective dose (mg/kg)
Could you give me the number in mg/kg? Just the number is fine.

// below: answered molecules
- molecule: "Oc1cc2c(cc1CCOc1ccc(F)cc1)OCCO2"
  parameter.measured: "minimal effective dose"
  units.of.measure: "mg/kg"
  value.measured: 100
- molecule: "COc1ccc(O)c(CCOc2ccc(Cl)cc2)c1"
  parameter.measured: "minimal effective dose"
  units.of.measure: "mg/kg"
  value.measured: 100
- molecule: "Cc1ccc(O)c(CCOc2ccccc2)c1"
  parameter.measured: "minimal effective dose"
  units.of.measure: "mg/kg"
  value.measured: 100

In: Item COc1ccc(OC(C)=O)c(CCOc2ccc(F)cc2)c1 : provide minimal effective dose
Out: 25

In: Item CC(COc1ccc(F)cc1)c1ccccc1O (stereo not shown) : provide minimal effective dose
Out: 100

In: Item NC(=O)c1ccc(O)c(CCOc2ccc(F)cc2)c1 : provide minimal effective dose
Out: 25

In: Item NS(=O)(=O)c1cc(C(=O)O)c(NCc2ccco2)cc1Cl [FUROSEMIDE, reference compound] : provide minimal effective dose
Out: 25

In: Item CC(=O)NCCCCCC(=O)Oc1ccccc1CCOc1ccc(F)cc1 : provide minimal effective dose
Out: 25

In: Item Oc1ccc2ccccc2c1CCOc1ccc(F)cc1 : provide minimal effective dose
Out: 100

In: Item Oc1ccccc1CCOc1ccc(F)cc1 : provide minimal effective dose
Out: 25

* * *

Molecular target: COTRANSPORT Na-K (Homo sapiens, UniProt P55011)
Construct: systèmes de transport du sodium et du potassium des érythrocytes humains; endogenous in cells; host or cells: human erythrocytes
Assay: Na-K cotransport of human erythrocytes
Format: cell-based, ERYTHROCYTES HUMAINS
Conditions: human erythrocytes; read-out: EFFET SUR LE COTRANSPORT Na-K IC 50
Listed here are compounds together with their documented IC50.

- compound: "CC(COc1ccc(F)cc1)c1ccccc1O (stereo not drawn)"
  target.under.test: "COTRANSPORT Na-K (Homo sapiens, UniProt P55011)"
  value.measured: "~400 µM"
- compound: "COc1ccc(OC(C)=O)c(CCOc2ccc(F)cc2)c1"
  target.under.test: "COTRANSPORT Na-K (Homo sapiens, UniProt P55011)"
  value.measured: "> 600 µM"

Now look at this one.
In: Item Cc1ccc(O)c(CCOc2ccccc2)c1 : provide IC50
Out: > 600 µM
